These entries and their values trace back to patent US20260258124A1.

# Test Target: T1, human recombinant CD117 (c-Kit) from Sino Biological (Catalog No. 11996-H08H) (human, UniProt P10721 26-524)
# T1 construct: also called soluble antigen
# T1 sequence (P10721 26-524 limits assumed): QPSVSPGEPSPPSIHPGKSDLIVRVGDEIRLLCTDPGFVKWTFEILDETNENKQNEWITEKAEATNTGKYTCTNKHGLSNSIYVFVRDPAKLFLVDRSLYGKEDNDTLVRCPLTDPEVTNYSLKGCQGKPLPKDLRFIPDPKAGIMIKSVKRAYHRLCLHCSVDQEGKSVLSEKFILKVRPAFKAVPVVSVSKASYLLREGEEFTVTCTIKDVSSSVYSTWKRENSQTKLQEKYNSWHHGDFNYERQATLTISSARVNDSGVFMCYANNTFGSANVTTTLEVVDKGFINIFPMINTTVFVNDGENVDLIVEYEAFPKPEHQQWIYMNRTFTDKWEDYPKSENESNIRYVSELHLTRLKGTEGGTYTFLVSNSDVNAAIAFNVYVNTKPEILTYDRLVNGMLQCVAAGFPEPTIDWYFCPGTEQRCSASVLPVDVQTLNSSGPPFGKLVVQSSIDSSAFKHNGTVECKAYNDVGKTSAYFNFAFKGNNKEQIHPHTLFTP
# Run Description: BLI Octet, IgG on anti-human Fc sensor, soluble CD117, 1:1 fit
Could you please report measured pKd for the items listed next?
Lab note — pKd values are minus log10 of concentrations in M.

Req: Would you kindly share the measured pKd for Signalkuppe (antibody, V domains shown, IgG; also called VH1/VL3; HC1 LC3) VH: QVQLVQSGAEVKKPGASVKVSCKASGYTFTSYNMHWVRQAPGQGLEWMGVIYSGNGDTSYNQKFKGRVTMTTDTSTSTAYMELRSLTSDDTAVYYCARERDTRFGNWGQGTLVTVSA VL: DIVMTQSPSTLSASVGDRVTITCRASESVDIYGSSFMHWYQQKPGQPPKLLIYLASNLESGVPSRFSGSGSGTEFTLTISSLEADDVATYYCQQNNEDPYTFGGGTKLEIK ?
Resp: 8.96

Req: // query: HC3 LC3 (antibody, V domains shown, IgG; also called VH3/VL3) VH: QVQLVQSGAEVRKPGASVKLSCKASGYTFTSYNMHWVRQAPGQGLEWMGVIYSGNGDTSYNQKFKGRVTLTRDTSTSTVYMELSSLRSEDTAVYYCARERDTRFGNWGQGTLVTVSA VL: DIVMTQSPSTLSASVGDRVTITCRASESVDIYGSSFMHWYQQKPGQPPKLLIYLASNLESGVPSRFSGSGSGTEFTLTISSLEADDVATYYCQQNNEDPYTFGGGTKLEIK
Resp: 8.48

Req: // query: HC2 LC1 (antibody, V domains shown, IgG; also called VH2/VL1) VH: QVQLVESGAEVKKPGASVKLSCKASGYTFTSYNMHWVRQAPGQRLEWMGVIYSGNGDTSYNQKFKGRVTITVDKSASTAYMELSSLRSEDTAVYYCARERDTRFGNWGQGTLVTVSA VL: EIVLTQSPSSLSASVGDRVTITCRASESVDIYGNSFMHWYQQKPGKAPKLLIYLASNLESGVPSRFSGSGSGTDFTLTISSLQPEDFATYYCQQNNEDPYTFGQGTKLEIK
Resp: 8.29

Req: // query: HC1 LC5 (antibody, V domains shown, IgG; also called VH1/VL5) VH: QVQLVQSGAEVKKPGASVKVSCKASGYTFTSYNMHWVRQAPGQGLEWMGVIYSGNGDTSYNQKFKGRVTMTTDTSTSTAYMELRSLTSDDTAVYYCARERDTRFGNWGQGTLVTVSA VL: DIQMTQSPSSLSASVGDRVTITCRASESVDIYGNAFMHWYQQKPGKAPKLLIYLASNLESGVPSRFSGSGSGTDFTLTISSLQPEDFATYYCQQANEEPYTFGGGTKLEIK
Resp: 8.06

Req: // query: Dufour (antibody, V domains shown, IgG; also called VH1/VL1; HC1 LC1) VH: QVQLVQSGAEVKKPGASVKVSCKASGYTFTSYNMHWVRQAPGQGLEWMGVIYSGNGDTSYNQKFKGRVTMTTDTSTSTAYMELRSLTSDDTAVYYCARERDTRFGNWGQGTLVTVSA VL: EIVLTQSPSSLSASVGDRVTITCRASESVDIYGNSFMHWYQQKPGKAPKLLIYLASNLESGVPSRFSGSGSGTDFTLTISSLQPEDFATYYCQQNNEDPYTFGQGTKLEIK
Resp: 9.10

Req: // query: Dom (antibody, V domains shown, IgG; also called VH3/VL1; HC3 LC1) VH: QVQLVQSGAEVRKPGASVKLSCKASGYTFTSYNMHWVRQAPGQGLEWMGVIYSGNGDTSYNQKFKGRVTLTRDTSTSTVYMELSSLRSEDTAVYYCARERDTRFGNWGQGTLVTVSA VL: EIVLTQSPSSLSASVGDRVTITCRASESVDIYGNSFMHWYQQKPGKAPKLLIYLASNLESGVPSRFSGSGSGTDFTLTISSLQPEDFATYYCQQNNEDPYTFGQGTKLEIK
Resp: 8.71
